Exercise: for every item that follows, state its recorded AUC.
assay: Rat pharmacokinetic model (IV vs microspray aerosol, intratracheal); format: in vivo, rats; settings: rat, epithelial lining fluid (ELF), inhaled or intranasal; IT, 10 mg/kg
One number for each entry, in µg·h/mL.

NC1CCN(c2c(F)cc3c(=O)c(C(=O)O)cn(C4CC4)c3c2Cl)C1 (stereo not drawn) :: 30.8
CO/N=C1\CN(c2nc3c(cc2F)c(=O)c(C(=O)O)cn3C2CC2)CC1CN (stereo not drawn) :: 536
C[C@H]1COc2c(N3CCN(C)CC3)c(F)cc3c(=O)c(C(=O)O)cn1c23 :: 12.1
CCn1cc(C(=O)O)c(=O)c2cc(F)c(N3CCNCC3)cc21 :: 41.7

Look up AUC for the entries below, preserving their order.
1. COc1c(N2CCNC(C)C2)c(F)cc2c(=O)c(C(=O)O)cn(C3CC3)c12 (stereo not drawn)
2. NC[C@H]1O[C@H](O[C@H]2[C@H](O)[C@@H](O[C@H]3O[C@H](CO)[C@@H](O)[C@H](N)[C@H]3O)[C@H](N)C[C@@H]2N)[C@H](N)C[C@@H]1O

Reply:
54.7
5150

* * *

experiment: Rat pharmacokinetic model (IV vs microspray aerosol, intratracheal); format: in vivo, rats; settings: IT, 10 mg/kg
observable: F, % from Lung vs. IV (%)
Answers are plain numbers, in %.

COc1c(N2CCNC(C)C2)c(F)cc2c(=O)c(C(=O)O)cn(C3CC3)c12 (centres unmarked) :: 100
NC[C@H]1O[C@H](O[C@H]2[C@H](O)[C@@H](O[C@H]3O[C@H](CO)[C@@H](O)[C@H](N)[C@H]3O)[C@H](N)C[C@@H]2N)[C@H](N)C[C@@H]1O :: 81
C[C@H]1COc2c(N3CCN(C)CC3)c(F)cc3c(=O)c(C(=O)O)cn1c23 :: 86
CO/N=C1\CN(c2nc3c(cc2F)c(=O)c(C(=O)O)cn3C2CC2)CC1CN (centres unmarked) :: 86

Okay, now this compound:
Lab book: F, % from Lung vs. IV of CCn1cc(C(=O)O)c(=O)c2cc(F)c(N3CCNCC3)cc21 noted as 100

* * *

Task for the reader: assign each of the following compounds its reported After pH Adjustment pH.
test: physchem; conditions: 10 mg/mL, titrated with 1N HCl

C[C@@H]1CN(c2c(F)c(N)c3c(=O)c(C(=O)O)cn(C4CC4)c3c2F)C[C@H](C)N1 :: 1.5

Answer for every listed entry: what is its After pH Adjustment pH? The entries follow.
1. CN1CCN(c2c(F)cc3c(=O)c(C(=O)O)cn4c3c2OCN4C)CC1
2. C[C@@H]1CN(c2c(F)c(F)c3c(=O)c(C(=O)O)cn(C4CC4)c3c2F)C[C@H](C)N1
3. NC1CCN(c2nc3c(cc2F)c(=O)c(C(=O)O)cn3-c2ccc(F)cc2F)C1 (centres unmarked)
4. COc1c(N2CCNC(C)C2)c(F)cc2c(=O)c(C(=O)O)cn(C3CC3)c12 (centres unmarked)

Reply:
1: 1.5; 2: 1.7; 3: 1.5; 4: 3.0

* * *

test system: P. aeruginosa strain PAM 1723; test: Mouse lung infection efficacy model; conditions: Pseudomonas aeruginosa, PAM1723, in Mus musculus, ip, 4 h, read-out: DeltaLOG CPU 4 hr, route IP, dose 25 mg/kg, 4 hr post-drug administration
log reduction at 25 mg/kg of 0.4 or higher: Condition met. Under 0.4: Condition not met.

Recorded results for 3 molecules are shown here.
NC1CCN(c2nc3c(cc2F)c(=O)c(C(=O)O)cn3-c2ccc(F)cc2F)C1 (centres unmarked) :: Condition not met
C[C@@H]1CN(c2c(F)c(N)c3c(=O)c(C(=O)O)cn(C4CC4)c3c2F)C[C@H](C)N1 :: Condition not met
COc1c(N2CCNC(C)C2)c(F)cc2c(=O)c(C(=O)O)cn(C3CC3)c12 (centres unmarked) :: Condition not met

Read the next record carefully.
Task item: log reduction at 25 mg/kg >= 0.4 for NC1CCN(c2c(F)cc3c(=O)c(C(=O)O)cn(C4CC4)c3c2Cl)C1 (centres unmarked) ?
Reply: Condition met

Numbers sourced from patent US10987357B2.
